Field: Coelenteramide (EDTA-containing buffer) Maximum fluorescence wavelength λmax (nm). Provide a value for each of the compounds that follow.
- assay_summary: Fluorescence spectra of coelenteramide analogue alone (absence of apoaequorin)
- Assay type: physicochemical
- protocol_conditions: analogue alone 8 μg/ml, 10 mM EDTA buffer pH 7.6, excitation 337 nm
Your answer is read as nm, so omit the unit and give the number.

Exercise: Consider the compound shown here: Oc1ccc(NC(=S)Nc2ncc(-c3ccc(O)cc3)nc2Cc2ccccc2)cc1 [Compound 4v] What is its recorded Coelenteramide (EDTA-containing buffer) Maximum fluorescence wavelength λmax (nm)?
Key: 484.0

Exercise: Consider the compound shown here: O=C(Cc1ccc(O)cc1)Nc1ncc(-c2ccc(O)cc2)nc1-c1ccsc1 [Compound 4g] What is its recorded Coelenteramide (EDTA-containing buffer) Maximum fluorescence wavelength λmax (nm)?
Key: 473.0

Exercise: Consider the compound shown here: O=C(Cc1ccc(O)cc1)Nc1ncc(-c2ccc(O)cc2)nc1Cc1ccccc1 [Coelenteramide] What is its recorded Coelenteramide (EDTA-containing buffer) Maximum fluorescence wavelength λmax (nm)?
Key: 458.0

Exercise: Consider the compound shown here: O=C(Cc1ccc(O)cc1)Nc1ncc(-c2ccc(O)cc2)nc1CCc1ccccc1 [Compound 4r] What is its recorded Coelenteramide (EDTA-containing buffer) Maximum fluorescence wavelength λmax (nm)?
Key: 481.0

Exercise: Consider the compound shown here: O=C(Cc1ccc(O)cc1)Nc1ncc(-c2ccc(O)cc2)nc1-c1csc2ccccc12 [Compound 4i] What is its recorded Coelenteramide (EDTA-containing buffer) Maximum fluorescence wavelength λmax (nm)?
Key: 471.5

Exercise: Consider the compound shown here: C=C(c1ccccc1)c1nc(-c2ccc(O)cc2)cnc1NC(=O)Cc1ccc(O)cc1 [Compound 4c] What is its recorded Coelenteramide (EDTA-containing buffer) Maximum fluorescence wavelength λmax (nm)?
Key: 475.5

Exercise: Consider the compound shown here: CC(C(=O)Nc1ncc(-c2ccc(O)cc2)nc1Cc1ccccc1)c1ccc(O)cc1 (centres unmarked) [Compound 4w] What is its recorded Coelenteramide (EDTA-containing buffer) Maximum fluorescence wavelength λmax (nm)?
Key: 451.0

Exercise: Consider the compound shown here: O=C(Cc1ccc(O)cc1)Nc1ncc(-c2ccc(O)cc2)nc1-c1cc2ccccc2s1 [Compound 4h] What is its recorded Coelenteramide (EDTA-containing buffer) Maximum fluorescence wavelength λmax (nm)?
Key: 426.5

----------
- assay_summary: Fluorescence spectra of coelenteramide analogue alone (absence of apoaequorin)
- Type: physicochemical
- protocol_conditions: analogue alone 8 μg/ml, 10 mM CaCl2 buffer pH 7.6, excitation 337 nm
Field: Coelenteramide (Buffer containing CaCl2) Maximum fluorescence wavelength λmax (nm). Provide a value for each of the molecules that follow.
Your answer is read as nm, so omit the unit and give the number.

Exercise: Consider the molecule shown here: O=C(Cc1ccc(O)cc1)Nc1ncc(-c2ccc(O)cc2)nc1-c1cccs1 What is its recorded Coelenteramide (Buffer containing CaCl2) Maximum fluorescence wavelength λmax (nm)?
Key: 447.0

Exercise: Consider the molecule shown here: O=C(Cc1ccc(O)cc1)Nc1ncc(-c2ccc(O)cc2)nc1-c1cc2ccccc2s1 What is its recorded Coelenteramide (Buffer containing CaCl2) Maximum fluorescence wavelength λmax (nm)?
Key: 426.5

Exercise: Consider the molecule shown here: O=C(Cc1ccc(O)cc1)Nc1ncc(-c2ccc(O)cc2)nc1-c1cc2sc3ccsc3c2s1 What is its recorded Coelenteramide (Buffer containing CaCl2) Maximum fluorescence wavelength λmax (nm)?
Key: 523.0

Exercise: Consider the molecule shown here: Oc1ccc(NC(=S)Nc2ncc(-c3ccc(O)cc3)nc2Cc2ccccc2)cc1 What is its recorded Coelenteramide (Buffer containing CaCl2) Maximum fluorescence wavelength λmax (nm)?
Key: 466.0

Exercise: Consider the molecule shown here: O=C(Nc1ccc(O)cc1)Nc1ncc(-c2ccc(O)cc2)nc1Cc1ccccc1 What is its recorded Coelenteramide (Buffer containing CaCl2) Maximum fluorescence wavelength λmax (nm)?
Key: 445.5

Exercise: Consider the molecule shown here: O=C(Nc1ncc(-c2ccc(O)cc2)nc1Cc1ccccc1)c1cccc(O)c1 What is its recorded Coelenteramide (Buffer containing CaCl2) Maximum fluorescence wavelength λmax (nm)?
Key: 457.0

Exercise: Consider the molecule shown here: O=C(Cc1ccc(O)cc1)Nc1ncc(-c2ccc(O)cc2)nc1-c1ccc2ccccc2c1 What is its recorded Coelenteramide (Buffer containing CaCl2) Maximum fluorescence wavelength λmax (nm)?
Key: 478.0

Exercise: Consider the molecule shown here: O=C(Cc1ccc(O)cc1)Nc1ncc(-c2ccc(O)cc2)nc1-c1cc2sccc2s1 What is its recorded Coelenteramide (Buffer containing CaCl2) Maximum fluorescence wavelength λmax (nm)?
Key: 491.0

----------
Field: Coelenteramide (EDTA-containing buffer) Maximum fluorescence wavelength λmax (nm). Provide a value for each of the compounds that follow.
- assay_summary: Fluorescence spectra of coelenteramide analogue alone (absence of apoaequorin)
- Format: physicochemical
- protocol_conditions: analogue alone 8 μg/ml, 10 mM EDTA buffer pH 7.6, excitation 337 nm
Your answer is read as nm, so omit the unit and give the number.

Exercise: Consider the compound shown here: O=C(Cc1ccc(O)cc1)Nc1ncc(-c2ccc(O)cc2)nc1-c1ccccc1 What is its recorded Coelenteramide (EDTA-containing buffer) Maximum fluorescence wavelength λmax (nm)?
Key: 471.0

Exercise: Consider the compound shown here: O=C(Cc1ccc(O)cc1)Nc1ncc(-c2ccc(O)cc2)nc1-c1cccs1 What is its recorded Coelenteramide (EDTA-containing buffer) Maximum fluorescence wavelength λmax (nm)?
Key: 448.5

Exercise: Consider the compound shown here: O=C(Nc1ccc(O)cc1)Nc1ncc(-c2ccc(O)cc2)nc1Cc1ccccc1 What is its recorded Coelenteramide (EDTA-containing buffer) Maximum fluorescence wavelength λmax (nm)?
Key: 440.5

Exercise: Consider the compound shown here: O=C(Cc1ccc(O)cc1)Nc1ncc(-c2ccc(O)cc2)nc1/C=C/c1ccccc1 What is its recorded Coelenteramide (EDTA-containing buffer) Maximum fluorescence wavelength λmax (nm)?
Key: 495.5

----------
- target_system: Renilla luciferase (Renilla reniformis, UniProt P27652)
- Construct: made in house
- Sequence (P27652 whole entry): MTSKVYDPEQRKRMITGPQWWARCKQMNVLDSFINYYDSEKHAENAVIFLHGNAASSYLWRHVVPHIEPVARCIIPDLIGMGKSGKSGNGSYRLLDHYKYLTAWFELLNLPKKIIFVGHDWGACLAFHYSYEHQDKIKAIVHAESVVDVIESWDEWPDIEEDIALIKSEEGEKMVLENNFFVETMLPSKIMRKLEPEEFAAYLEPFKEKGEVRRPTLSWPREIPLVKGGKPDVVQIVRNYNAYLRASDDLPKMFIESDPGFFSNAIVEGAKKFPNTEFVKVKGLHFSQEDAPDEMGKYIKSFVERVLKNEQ
- assay_summary: Substrate specificity and luminescence activity of Renilla luciferase
- Format: biochemical
- protocol_conditions: measured for 10 seconds, coelenterazine = 100
measurement_kind: Luminescence activity Imax (%)
Quick note: number first, unit second.

Exercise: Consider the compound shown here: O=c1c(Cc2ccc(O)cc2)nc2c(-c3ccsc3)[nH]c(-c3ccc(O)cc3)cn1-2 [Compound 3g] What is its recorded Luminescence activity Imax (%)?
Key: 0.00%

Exercise: Consider the compound shown here: O=c1c(Cc2ccc(O)cc2)nc2c(-c3cccc4ccccc34)[nH]c(-c3ccc(O)cc3)cn1-2 [Compound 3d] What is its recorded Luminescence activity Imax (%)?
Key: 0.00%

Exercise: Consider the compound shown here: O=c1c(Cc2ccc(O)cc2)nc2c(/C=C/c3ccccc3)[nH]c(-c3ccc(O)cc3)cn1-2 [Compound 3b] What is its recorded Luminescence activity Imax (%)?
Key: 0.00%

Exercise: Consider the compound shown here: Oc1ccc(Cc2nc3c(Cc4ccccc4)nc(-c4ccc(O)cc4)cn3c2O)cc1 [Coelenterazine] What is its recorded Luminescence activity Imax (%)?
Key: 100.0%

Exercise: Consider the compound shown here: O=c1c(Cc2ccc(O)cc2)nc2c(-c3cccs3)[nH]c(-c3ccc(O)cc3)cn1-2 [Compound 3f] What is its recorded Luminescence activity Imax (%)?
Key: 0.00%

Exercise: Consider the compound shown here: O=c1c(Cc2ccc(O)cc2)nc2c(-c3cc4ccccc4s3)[nH]c(-c3ccc(O)cc3)cn1-2 [Compound 3h] What is its recorded Luminescence activity Imax (%)?
Key: 0.00%

Exercise: Consider the compound shown here: O=c1c(Cc2ccc(O)cc2)nc2c(-c3ccccc3)[nH]c(-c3ccc(O)cc3)cn1-2 [Compound 3a] What is its recorded Luminescence activity Imax (%)?
Key: 0.00%

Exercise: Consider the compound shown here: O=c1c(Cc2ccc(O)cc2)nc2c(-c3csc4ccccc34)[nH]c(-c3ccc(O)cc3)cn1-2 [Compound 3i] What is its recorded Luminescence activity Imax (%)?
Key: 0.00%

Exercise: Consider the compound shown here: O=c1c(Cc2ccc(O)cc2)nc2c(-c3ccc(O)cc3)[nH]c(-c3ccc(O)cc3)cn1-2 [Compound 3j] What is its recorded Luminescence activity Imax (%)?
Key: 0.03%

Exercise: Consider the compound shown here: O=c1c(Cc2ccc(O)cc2)nc2c(-c3ccc4ccccc4c3)[nH]c(-c3ccc(O)cc3)cn1-2 [Compound 3e] What is its recorded Luminescence activity Imax (%)?
Key: 0.00%

----------
- target_system: apoaequorin (Aequorea victoria, UniProt P07164)
- Construct: purchased Chisso Corporation
- Sequence (P07164 other isoform, or with tags, fused parts or gaps with the stated changes): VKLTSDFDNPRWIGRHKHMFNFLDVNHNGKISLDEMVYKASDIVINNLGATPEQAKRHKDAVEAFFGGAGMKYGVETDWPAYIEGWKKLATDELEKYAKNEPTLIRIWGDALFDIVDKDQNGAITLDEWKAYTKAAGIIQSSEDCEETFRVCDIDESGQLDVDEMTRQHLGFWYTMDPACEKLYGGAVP
- assay_summary: Fluorescence spectra of semi-synthetic gFP (coelenteramide analogue + apoaequorin, EDTA)
- Format: physicochemical
- protocol_conditions: 10 mM EDTA buffer, excitation 337 nm
- Procedure: Semi-synthetic gFP was prepared from recombinant apoaequorin and coelenteramide analogues as follows. […] The fluorescence spectra were determined as follows. […] The fluorescence spectra were measured at 25° C. in a quartz cell (10 mm light path length) using a Jasco FP-6500 spectrofluorometer (excitation wavelength: 337 nm, emission/excitation bandwidth: 3 nm; response: 0.5 sec, scan speed, 1000 nm/min).
measurement_kind: Semi-synthetic gFP (EDTA-containing buffer) Maximum fluorescence wavelength λmax (nm)
Your answer is read as nm, so omit the unit and give the number.

Exercise: Consider the molecule shown here: O=C(Cc1ccc(O)cc1)Nc1ncc(-c2ccc(O)cc2)nc1-c1cccs1 [Compound 4f] What is its recorded Semi-synthetic gFP (EDTA-containing buffer) Maximum fluorescence wavelength λmax (nm)?
Key: 536.5

Exercise: Consider the molecule shown here: O=C(Cc1ccc(O)cc1)Nc1ncc(-c2ccc(O)cc2)nc1Br [Compound 4t] What is its recorded Semi-synthetic gFP (EDTA-containing buffer) Maximum fluorescence wavelength λmax (nm)?
Key: 482.5

Exercise: Consider the molecule shown here: O=C(Cc1ccc(O)cc1)Nc1ncc(-c2ccc(O)cc2)nc1/C=C/c1ccccc1 [Compound 4b] What is its recorded Semi-synthetic gFP (EDTA-containing buffer) Maximum fluorescence wavelength λmax (nm)?
Key: 530.0
